Origin of measurements: patent US20250049927A1

experiment: Pharmacokinetic evaluation in rats: plasma gemcitabine and dFdU by LC-MS/MS; conditions: male, Sprague-Dawley, rat, plasma, iv, 2 mg/kg
Measured Property: AUC(0-inf) (ng·h/mL)
// units = ng·h/mL; emit number, no label

q: Name the reported AUC(0-inf) value associated with the compound Nc1ccn([C@@H]2O[C@H](CO)[C@@H](O)C2(F)F)c(=O)n1 [Gemcitabine, 2′,2′-difluoro-2′-deoxycytidine]
a: 7500

----------
system: BxPC-3 pancreatic cancer cell lines; experiment: Pancreatic cancer cell growth inhibition, WST assay; assay type: cell-based; conditions: BxPC-3, 72 hours treatment, absorbance 450 nm
Measured Property: pIC50
# pIC50: negative log10 of molar concentration; output just the value

q: Please report the recorded pIC50 for Comparative Example 2 (GGTGGTGGTGGTTGNGGTGGTGGTGG; paclitaxel conjugate; modified_base 15 OTHER; deoxyuridine(dU)-acrylamide-C6-NH2) .
a: 5.34

q: Would you mind telling me what pIC50 value was observed for Comparative Example 6: DM1 conjugated to U of GGTGGTGGTGGTUGTGGTGGTGGTGG (SEQ ID NO: 3); linker -acrylamide-C6-NH-SMCC- (DNA ggtggtggtggtngtggtggtggtgg; DM1 via acrylamide-C6-NH-SMCC linker; modified_base 13 OTHER; deoxyuridine(dU)) ?
a: 5.52

q: Look up pIC50: Example 11: DM1 conjugated to U of GGTGGTGGTGGMUGMGGTGGTGGTGG (SEQ ID NO: 8), M=Gemcitabine; linker -acrylamide-C6-NH-SMCC- (DNA GGTGGTGGTGGNNGNGGTGGTGGTGG; gemcitabine nucleotides; DM1 via SMCC linker; modified_base 13 OTHER; deoxyuridine(dU); modified_base 12 OTHER; gemcitabine; modified_base 15 OTHER)
a: 4.57

----------
Field: pIC50. Provide a value for each of the substances that follow.
tested on: BxPC-3 pancreatic cancer cell lines; assay: Pancreatic cancer cell growth inhibition, WST assay; assay type: cell-based; details: BxPC-3, 72 hours treatment, absorbance 450 nm
pIC50 is defined as minus the log10 of a concentration measured in mol/L.

q: What pIC50 appears in the records for this substance with BxPC-3 pancreatic cancer cell lines? Example 7 (GGTGGTGGTGGTTGNGGTGGTGGNGG; paclitaxel via acrylamide-C6-NH-succinic acid linker on U; modified_base 15 OTHER; deoxyuridine(dU); modified_base 24 OTHER; gemcitabine)
a: 6.96

q: For the record Comparative Example 1: control aptamer GGTGGTGGTGGTTGTGGTGGTGGTGG (SEQ ID NO: 1) , what value of pIC50 is listed for BxPC-3 pancreatic cancer cell lines?
a: 4.05

q: Test system BxPC-3 pancreatic cancer cell lines; read-out pIC50; what value for Example 5 (GGTGGTGGTGGNNGNGGTGGTGGTGG; paclitaxel via acrylamide-C6-NH-succinic acid linker on U; modified_base 13 OTHER; deoxyuridine(dU); modified_base 12 OTHER; gemcitabine; modified_base 15 OTHER) ?
a: 7.00

q: Find the measured pIC50: item Example 6: paclitaxel conjugated to U of GGTGGTGGTGGTUGTGGTGGTGGMGG (SEQ ID NO: 9), M=Gemcitabine; linker -acrylamide-C6-NH-succinic acid- (DNA GGTGGTGGTGGTNGTGGTGGTGGNGG; paclitaxel via linker; gemcitabine at M; modified_base 13 OTHER; deoxyuridine(dU); modified_base 24 OTHER; gemcitabine) , target or system BxPC-3 pancreatic cancer cell lines.
a: 6.85
